# Tested on: GB4
# measurement notes: qHTS profiling for inhibitors of Plasmodium falciparum proliferation (AID 504749); also: nearly all actives have a fitted effect of over 60% in size; also: potency is read from the fitted curve at half-maximal effect
# measurement parameters: P. falciparum in erythrocytes, SYBR Green DNA, 72 h; series mostly up to 12.8 µM
Results filed as inconclusive are left out. Active and inactive are the calls of the source. Calls follow the shape of the dose curve; as a rule, active = well fitted inhibition curve with a large enough effect; inconclusive = small, poorly fitted or top-dose-only effect; inactive = flat fitted curve, though single readings scatter.
test readout: Potency

Record excerpt, results attached:
CO[C@]1(NC(=O)[C@H](C(=O)O)c2ccc(O)cc2)C(=O)N2C(C(=O)O)=C(CSc3nnnn3C)CO[C@H]21 | inactive
Cc1ccsc1/C=C\C1=NCCCN1C | inactive
CC(=O)N[C@H](CC(C)C)C(=O)O | inactive
CC[N+](CC)(CC)CC[C@](O)(c1ccccc1)C1CCCCC1 | inactive
CO[C@H]1[C@@H](OC(N)=O)[C@H](O)[C@@H](Oc2ccc3c(O)c(NC(=O)c4ccc(O)c(CC=C(C)C)c4)c(=O)oc3c2C)OC1(C)C | inactive

For GB4, provide Potency of C[C@@]12CC[C@H]3[C@@H](CCC4=CC(=O)CC[C@]43C)[C@H]1CC[C@H]2C(=O)CO please.
inactive

Lookup COC(=O)[C@@H]1[C@@H]2C[C@H]3c4[nH]c5cc(OC)ccc5c4CCN3C[C@@H]2C[C@H](OC(=O)/C=C\c2cc(OC)c(OC)c(OC)c2)[C@H]1OC
5.1 µM (active)

Another compound to check: CC(=O)OCC(=O)[C@@]12OC(C)(C)O[C@@H]1C[C@H]1[C@H]3C[C@H](F)C4=CC(=O)C=C[C@@]4(C)[C@]3(F)[C@H](O)C[C@@]12C
inactive

CCC1OC(=O)C(C)[C@@H](O[C@H]2C[C@@](C)(OC)C(O)C(C)O2)C(C)[C@@H](O[C@@H]2OC(C)CC(N(C)C)C2O)[C@@](C)(O)CC(C)C(=O)[C@@H](C)C(O)[C@]1(C)O (stereo partly specified) ?
inactive

Cn1nnnc1SCC1=C(C(=O)O)N2C(=O)[C@@H](NC(=O)[C@@H](O)c3ccccc3)[C@@H]2SC1 ?
inactive

Also need Clc1ccc([C@H](Cn2ccnc2)OCc2csc3c(Cl)cccc23)c(Cl)c1 , thanks.
5.1 µM (active)

And COc1ccccc1OC[C@H](O)CO ?
inactive

Try this compound too: C[C@]1(c2ccccc2)OC(C(=O)O)=CC1=O
inactive

---

# system tested: Rap guanine nucleotide exchange factor 4 (Homo sapiens)
# measurement notes: Confirmatory qHTS for antagonist of cAMP-regulated guanine nucleotide exchange factor 4 (EPAC2) (AID 1645885); also: nearly all actives have a fitted effect of over 25% in size
# measurement parameters: EPAC2 Rap1B-BODIPY-GDP exchange fluorescence, biochemical; series mostly up to 12.7 µM
Records with an inconclusive call do not appear. Calls of active or inactive are those of the source. Calls come from the whole dose curve; as a rule, active = well fitted inhibition curve with a large enough effect; inconclusive = small, poorly fitted or top-dose-only effect; inactive = no such curve, though single readings can be large or run the other way.
Would you mind answering with one of these outcomes? True (active), False (inactive)

COc1cc(/C=C2\SC(=S)N(NS(=O)(=O)c3ccc(C)cc3)C2=O)cc(OC)c1OC | True
CCc1cccc(C)c1NC(=O)c1cc2ccccc2o1 | False
Cc1ccc(CNC(=O)c2ccc3c(=O)[nH]c4c(C(=O)NCC5CCCO5)sc(=S)n4c3c2)cc1 (stereo unspecified) | False

Now look at this entry.
What was the test verdict on CC[C@@]1(c2ccccc2OC)ON(c2ccccc2C(F)(F)F)C1=O ?
False

---

# Test system: CP286
# measurement notes: qHTS profiling for inhibitors of Plasmodium falciparum proliferation (AID 504749); also: nearly all actives have a fitted effect of over 60% in size
# measurement parameters: P. falciparum in erythrocytes, SYBR Green DNA, 72 h; series mostly up to 12.8 µM
Inconclusive results are not listed. Active and inactive are the calls of the source. The call rests on the fitted dose curve; in most records, active means well fitted inhibition curve with a large enough effect; inconclusive means small, poorly fitted or top-dose-only effect; inactive means flat fitted curve, though single readings scatter.
Tick one outcome: active, inactive

A selection of reference data follows.
CC(=O)N[C@H](CC(C)C)C(=O)O | inactive
CC1C2CCC3C4CC=C5CC(N(C)C)CC[C@@]5(C)C4CC[C@@]32CN1C (some centres not stated) | inactive
C[C@H](O)Cn1cnc2c1c(=O)n(C)c(=O)n2C | inactive

// outcome(item) with item = C=Cc1c(C)c2cc3nc(cc4[nH]c(cc5nc(cc1[nH]2)C(C)=C5CCC(=O)O)c(CCC(=O)OC)c4C)[C@@]1(C)C3=CC=C(C(=O)OC)[C@H]1C(=O)OC (tested in a mixture with another compound)
active

Do the same for CC1(C)OC2CC(=O)OC[C@@]23C1CC(=O)[C@]1(C)C3CC[C@@]2(C)C(c3ccoc3)OC(=O)C3O[C@@]321 (some centres not stated) please
inactive

Subsequent entry: NC(=O)c1ccc[n+]([C@@H]2O[C@H](COP(=O)([O-])OP(=O)(O)OC[C@H]3O[C@@H](n4cnc5c(N)ncnc54)[C@@H](O)[C@@H]3O)[C@@H](O)[C@@H]2O)c1
inactive

Please do the same for NCC1CCC(N)C(O[C@@H]2C(O)[C@H](O[C@H]3OC(CO)C(O)C(N)C3O)[C@@H](N)C[C@H]2N)O1 (some centres not stated) as well.
inactive
